assay: in vitro; conditions: human, Huh-7.5 cells infected with SARS-CoV-2
measured-attribute: viability at 24 h, 0.78125 µM (%)

structure_notation=CO[C@@H]1[C@H](N(C)C(=O)CCC(=O)NCc2cn(CCCS(=O)(=O)O)nn2)C[C@H]2O[C@]1(C)n1c3ccccc3c3c4c(c5c6ccccc6n2c5c31)C(=O)NC4 measured_attribute="viability at 24 h, 0.78125 µM" unit_info=% reported_value=84.7

---

biological target: NEK7 (Homo sapiens, UniProt Q8TDX7); construct: purchased Reaction Biology Corporation; experiment: HotSpot kinase assay; assay type: biochemical; conditions: read-out: IC50 (M) of Control Compound
Sequence (Q8TDX7 whole entry): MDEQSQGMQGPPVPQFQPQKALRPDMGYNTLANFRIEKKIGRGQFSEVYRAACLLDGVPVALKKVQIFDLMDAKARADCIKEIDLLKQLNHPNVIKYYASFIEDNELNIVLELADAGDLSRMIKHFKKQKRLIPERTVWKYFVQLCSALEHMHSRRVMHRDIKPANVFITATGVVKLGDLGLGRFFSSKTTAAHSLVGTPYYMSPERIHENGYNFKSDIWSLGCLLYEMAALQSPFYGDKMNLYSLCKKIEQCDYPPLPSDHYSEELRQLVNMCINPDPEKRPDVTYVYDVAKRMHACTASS
measured-attribute: IC50 (M)

compound="O=C1Nc2ccc3ncsc3c2/C1=C/c1cnc[nH]1 [PKR Inhibitor, reference compound]" unit_info=M reported_value=8.35e-06

---

molecular target: ABL1 (Homo sapiens); construct: purchased Reaction Biology Corporation; assay: biochemical; settings: Supplementary Table 1; read-out: IC50 (Molar concentration)
Sequence (P00519 whole entry): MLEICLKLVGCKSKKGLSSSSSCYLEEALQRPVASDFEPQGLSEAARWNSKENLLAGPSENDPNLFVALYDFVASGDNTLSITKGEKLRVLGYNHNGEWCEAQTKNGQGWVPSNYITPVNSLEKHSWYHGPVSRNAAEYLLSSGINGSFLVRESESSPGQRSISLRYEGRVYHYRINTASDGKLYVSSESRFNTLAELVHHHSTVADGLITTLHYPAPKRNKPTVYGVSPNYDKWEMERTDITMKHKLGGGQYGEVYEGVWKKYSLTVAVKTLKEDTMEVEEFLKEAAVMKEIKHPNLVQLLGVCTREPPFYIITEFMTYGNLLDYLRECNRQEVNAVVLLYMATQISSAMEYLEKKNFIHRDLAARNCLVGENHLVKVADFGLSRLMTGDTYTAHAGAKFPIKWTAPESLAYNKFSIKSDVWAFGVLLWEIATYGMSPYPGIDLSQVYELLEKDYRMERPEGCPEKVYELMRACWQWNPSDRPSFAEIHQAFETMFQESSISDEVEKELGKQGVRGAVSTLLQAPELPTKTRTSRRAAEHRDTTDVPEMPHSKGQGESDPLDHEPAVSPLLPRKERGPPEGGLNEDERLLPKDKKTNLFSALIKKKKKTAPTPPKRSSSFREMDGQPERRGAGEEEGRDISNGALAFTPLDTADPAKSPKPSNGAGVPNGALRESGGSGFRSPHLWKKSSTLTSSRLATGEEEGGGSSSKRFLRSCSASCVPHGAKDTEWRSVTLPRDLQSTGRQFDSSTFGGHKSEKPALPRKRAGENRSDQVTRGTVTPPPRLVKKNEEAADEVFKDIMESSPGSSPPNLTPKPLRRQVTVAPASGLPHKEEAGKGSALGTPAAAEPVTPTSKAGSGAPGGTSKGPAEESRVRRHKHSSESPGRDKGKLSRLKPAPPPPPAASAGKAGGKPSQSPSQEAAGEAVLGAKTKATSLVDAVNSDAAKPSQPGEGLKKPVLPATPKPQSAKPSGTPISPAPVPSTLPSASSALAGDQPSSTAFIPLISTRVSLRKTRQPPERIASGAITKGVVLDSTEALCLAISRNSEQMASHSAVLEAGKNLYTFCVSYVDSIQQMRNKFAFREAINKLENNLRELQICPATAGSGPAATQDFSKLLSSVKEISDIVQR
measured-attribute: IC50 (µM)

structure_notation=CO[C@@H]1[C@H](N(C)C(=O)CCC(=O)NCc2cn(CCCS(=O)(=O)O)nn2)C[C@H]2O[C@]1(C)n1c3ccccc3c3c4c(c5c6ccccc6n2c5c31)C(=O)NC4 unit_info=µM reported_value=0.143

---

target: AMPK(A2/B2/G3) (Homo sapiens, UniProt P54646); construct: purchased Reaction Biology Corporation; test: HotSpot kinase assay; format: biochemical; conditions: read-out: IC50 (M) of Control Compound
Sequence (P54646 whole entry): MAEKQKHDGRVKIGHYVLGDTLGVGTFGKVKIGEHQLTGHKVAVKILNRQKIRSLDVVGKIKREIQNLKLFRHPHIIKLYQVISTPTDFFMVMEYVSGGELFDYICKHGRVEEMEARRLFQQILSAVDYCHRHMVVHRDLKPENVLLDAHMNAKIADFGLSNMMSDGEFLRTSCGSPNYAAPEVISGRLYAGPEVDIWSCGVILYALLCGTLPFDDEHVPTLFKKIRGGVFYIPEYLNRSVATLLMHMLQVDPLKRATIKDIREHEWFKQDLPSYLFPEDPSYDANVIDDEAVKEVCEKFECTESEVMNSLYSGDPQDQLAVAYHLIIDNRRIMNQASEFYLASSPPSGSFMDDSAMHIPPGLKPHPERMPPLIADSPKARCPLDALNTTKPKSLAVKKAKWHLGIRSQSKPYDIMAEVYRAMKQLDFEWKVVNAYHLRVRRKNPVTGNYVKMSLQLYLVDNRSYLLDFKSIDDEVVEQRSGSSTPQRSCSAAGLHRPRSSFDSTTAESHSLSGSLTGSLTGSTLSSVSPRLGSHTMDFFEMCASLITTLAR
Sequence (O43741 whole entry partner): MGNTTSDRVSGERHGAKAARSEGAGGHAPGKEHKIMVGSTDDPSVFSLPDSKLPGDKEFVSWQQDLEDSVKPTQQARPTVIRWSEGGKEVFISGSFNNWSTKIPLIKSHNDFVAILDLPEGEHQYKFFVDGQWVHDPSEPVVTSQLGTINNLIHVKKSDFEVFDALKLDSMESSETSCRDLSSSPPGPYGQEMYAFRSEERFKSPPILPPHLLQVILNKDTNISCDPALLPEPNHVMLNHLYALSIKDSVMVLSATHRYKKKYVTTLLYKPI
Sequence (Q9UGI9 whole entry partner): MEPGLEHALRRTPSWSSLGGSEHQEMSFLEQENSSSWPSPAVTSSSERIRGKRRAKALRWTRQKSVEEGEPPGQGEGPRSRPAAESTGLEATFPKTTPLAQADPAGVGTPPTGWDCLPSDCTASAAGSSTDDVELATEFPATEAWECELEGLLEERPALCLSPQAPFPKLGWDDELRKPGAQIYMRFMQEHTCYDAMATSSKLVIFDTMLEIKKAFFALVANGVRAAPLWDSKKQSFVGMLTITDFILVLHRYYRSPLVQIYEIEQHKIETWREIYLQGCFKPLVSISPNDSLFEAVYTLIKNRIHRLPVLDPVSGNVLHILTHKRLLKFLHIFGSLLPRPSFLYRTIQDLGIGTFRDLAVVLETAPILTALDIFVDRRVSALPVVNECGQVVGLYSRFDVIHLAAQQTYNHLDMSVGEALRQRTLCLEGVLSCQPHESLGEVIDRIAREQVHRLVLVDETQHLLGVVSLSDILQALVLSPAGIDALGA
measured-attribute: IC50 (M)

compound="Cn1cc(C2=C(c3cn(CCCSC(=N)N)c4ccccc34)C(=O)NC2=O)c2ccccc21 [Ro-31-8220, reference compound]" target_under_test="AMPK(A2/B2/G3) (Homo sapiens, UniProt P54646)" measured_attribute=IC50 reported_value=1.86e-07

---

biological target: AKT2 (Homo sapiens, UniProt P31751)
pIC50: −log10 of the molar value.
measured-attribute: pIC50

compound="CO[C@@H]1[C@H](N(C)C(=O)CCC(=O)NCc2cn(CCCS(=O)(=O)O)nn2)C[C@H]2O[C@]1(C)n1c3ccccc3c3c4c(c5c6ccccc6n2c5c31)C(=O)NC4 [CIMSS]" reported_value=6.00

---

assay: in vitro; conditions: human, Huh-7.5 cells infected with SARS-CoV-2
measured-attribute: viability at 24 h, 25 µM

structure_notation=CO[C@@H]1[C@H](N(C)C(=O)CCC(=O)NCc2cn(CCCS(=O)(=O)O)nn2)C[C@H]2O[C@]1(C)n1c3ccccc3c3c4c(c5c6ccccc6n2c5c31)C(=O)NC4 measured_attribute="viability at 24 h, 25 µM" reported_value=87.9%

---

target: PDK1/PDPK1 (Homo sapiens, UniProt O15530); test: biochemical; conditions: Supplementary Table 1, PDPK1; read-out: IC50 (Molar concentration)
Sequence (O15530 whole entry): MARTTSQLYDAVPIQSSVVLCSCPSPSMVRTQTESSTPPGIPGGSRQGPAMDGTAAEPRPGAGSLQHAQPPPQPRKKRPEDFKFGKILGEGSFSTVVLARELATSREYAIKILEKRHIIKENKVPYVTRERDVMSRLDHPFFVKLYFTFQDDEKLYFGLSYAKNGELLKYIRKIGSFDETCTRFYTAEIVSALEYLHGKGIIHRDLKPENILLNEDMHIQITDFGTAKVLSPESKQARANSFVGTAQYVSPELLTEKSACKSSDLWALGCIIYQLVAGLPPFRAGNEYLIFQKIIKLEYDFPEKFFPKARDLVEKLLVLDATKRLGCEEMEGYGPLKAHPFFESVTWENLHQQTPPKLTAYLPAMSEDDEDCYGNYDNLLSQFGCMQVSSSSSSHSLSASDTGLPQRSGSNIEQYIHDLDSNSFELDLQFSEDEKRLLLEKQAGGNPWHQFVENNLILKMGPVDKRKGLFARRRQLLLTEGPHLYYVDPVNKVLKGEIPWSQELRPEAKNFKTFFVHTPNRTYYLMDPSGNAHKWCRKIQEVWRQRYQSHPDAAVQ
measured-attribute: IC50 (pM)

molecule="CO[C@@H]1[C@H](N(C)C(=O)CCC(=O)NCc2cn(CCCS(=O)(=O)O)nn2)C[C@H]2O[C@]1(C)n1c3ccccc3c3c4c(c5c6ccccc6n2c5c31)C(=O)NC4 [CIMSS]" unit_info=pM reported_value=278

---

target: WNK3 (Homo sapiens); construct: purchased Reaction Biology Corporation; assay: HotSpot kinase assay; format: biochemical; conditions: read-out: IC50 (M) of Control Compound
measured-attribute: IC50 (M)

compound="O=C1NC(=O)c2c1c(-c1ccccc1Cl)cc1[nH]c3ccc(O)cc3c21 [Wee-1 Inhibitor, reference compound]" measured_attribute=IC50 unit_info=M reported_value=1.49e-06

---

molecular target: UniProt P06213
measured-attribute: IC50

structure_notation=CO[C@@H]1[C@H](N(C)C(=O)CCC(=O)NCc2cn(CCCS(=O)(=O)O)nn2)C[C@H]2O[C@]1(C)n1c3ccccc3c3c4c(c5c6ccccc6n2c5c31)C(=O)NC4 reported_value="803 nM"

---

target: HIPK1 (Homo sapiens); construct: purchased Reaction Biology Corporation; assay: HotSpot kinase assay; type: biochemical; settings: read-out: IC50 (M) of Control Compound
Sequence (Q86Z02 whole entry): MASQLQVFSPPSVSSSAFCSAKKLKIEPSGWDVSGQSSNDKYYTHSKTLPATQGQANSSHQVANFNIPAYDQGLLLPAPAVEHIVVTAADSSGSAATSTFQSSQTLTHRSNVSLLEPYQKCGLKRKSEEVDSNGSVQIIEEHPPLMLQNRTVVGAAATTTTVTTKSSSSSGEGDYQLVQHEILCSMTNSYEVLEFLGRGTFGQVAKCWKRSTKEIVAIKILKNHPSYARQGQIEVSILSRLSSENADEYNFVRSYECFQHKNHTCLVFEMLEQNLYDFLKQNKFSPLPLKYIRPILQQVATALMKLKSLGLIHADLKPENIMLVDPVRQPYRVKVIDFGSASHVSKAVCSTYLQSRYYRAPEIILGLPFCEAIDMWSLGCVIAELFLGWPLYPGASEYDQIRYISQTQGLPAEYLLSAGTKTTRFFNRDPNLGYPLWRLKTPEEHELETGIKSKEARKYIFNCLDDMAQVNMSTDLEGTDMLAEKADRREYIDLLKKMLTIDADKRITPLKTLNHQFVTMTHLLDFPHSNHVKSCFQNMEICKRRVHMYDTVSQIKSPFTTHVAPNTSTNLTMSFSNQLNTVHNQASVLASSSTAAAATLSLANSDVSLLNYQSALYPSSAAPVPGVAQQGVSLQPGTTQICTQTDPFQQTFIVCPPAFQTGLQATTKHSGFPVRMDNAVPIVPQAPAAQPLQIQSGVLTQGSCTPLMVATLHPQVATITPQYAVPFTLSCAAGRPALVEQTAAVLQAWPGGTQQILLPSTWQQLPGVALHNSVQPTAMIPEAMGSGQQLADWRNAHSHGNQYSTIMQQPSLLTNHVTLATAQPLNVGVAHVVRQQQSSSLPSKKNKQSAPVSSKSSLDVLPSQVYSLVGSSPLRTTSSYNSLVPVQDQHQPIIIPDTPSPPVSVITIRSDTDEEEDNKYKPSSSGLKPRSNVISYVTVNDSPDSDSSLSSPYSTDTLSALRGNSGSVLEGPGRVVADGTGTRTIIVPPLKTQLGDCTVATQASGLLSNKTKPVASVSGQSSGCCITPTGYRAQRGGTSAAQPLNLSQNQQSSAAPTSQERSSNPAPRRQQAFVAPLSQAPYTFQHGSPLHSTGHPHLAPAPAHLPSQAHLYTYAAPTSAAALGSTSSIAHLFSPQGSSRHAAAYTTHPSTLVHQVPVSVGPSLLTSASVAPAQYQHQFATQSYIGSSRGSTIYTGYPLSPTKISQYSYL
measured-attribute: IC50 (M)

molecule="Cn1cc(C2=C(c3cn(CCCSC(=N)N)c4ccccc34)C(=O)NC2=O)c2ccccc21 [Ro-31-8220, reference compound]" reported_value=6.33e-07

---

assay: Parallel artificial membrane permeability assay (PAMPA); assay type: in vitro ADME; conditions: PAMPA, PBS pH 7.4, 5 h
measured-attribute: Papp at 5 h, 100 μM (×10⁻⁶ cm/s)

compound="CC(C)NCC(O)COc1cccc2ccccc12 (centres unmarked)" measured_attribute="Papp at 5 h, 100 μM" unit_info="×10⁻⁶ cm/s" reported_value=8.99
compound=CO[C@@H]1[C@H](N(C)C(=O)CCC(=O)NCc2cn(CCCS(=O)(=O)O)nn2)C[C@H]2O[C@]1(C)n1c3ccccc3c3c4c(c5c6ccccc6n2c5c31)C(=O)NC4 measured_attribute="Papp at 5 h, 100 μM" unit_info="×10⁻⁶ cm/s" reported_value=0.005

---

Biological target: AMPK(A1/B1/G3) (Homo sapiens, UniProt Q13131)
Construct: purchased Reaction Biology Corporation
Assay: HotSpot kinase assay
Assay type: biochemical
Conditions: read-out: IC50 (M) of Control Compound
Description: Kinase activity were performed by Reaction Biology Corporation using the “HotSpot” assay platform modified from the published procedure.
measured-attribute: IC50 (M)

molecule="Cn1cc(C2=C(c3cn(CCCSC(=N)N)c4ccccc34)C(=O)NC2=O)c2ccccc21 [Ro-31-8220, reference compound]" reported_value=1.79e-07

---

target: VRK1 (Homo sapiens, UniProt Q99986); construct: purchased Reaction Biology Corporation; assay: HotSpot kinase assay; format: biochemical; conditions: read-out: IC50 (M) of Control Compound
measured-attribute: IC50

compound="Cn1cc(C2=C(c3cn(CCCSC(=N)N)c4ccccc34)C(=O)NC2=O)c2ccccc21 [Ro-31-8220, reference compound]" reported_value="7.34e-07 M"

---

assay: cell proliferation and viability, ~50% confluent; conditions: human, cell proliferation and viability, odu as a percentage of the DMSO control, 10 μM, 120 h (Fig 1d source data)
measured-attribute: viability at 120 h, 10 µM (%)

structure_notation=CO[C@@H]1[C@H](N(C)C(=O)CCC(=O)NCc2cn(CCCS(=O)(=O)O)nn2)C[C@H]2O[C@]1(C)n1c3ccccc3c3c4c(c5c6ccccc6n2c5c31)C(=O)NC4 reported_value=102

---

target: ERK1 (Homo sapiens, UniProt P27361); construct: purchased Reaction Biology Corporation; assay: HotSpot kinase assay; format: biochemical; settings: read-out: IC50 (M) of Control Compound
measured-attribute: IC50 (M)

compound="O=C(Nc1ccc2[nH]nc(-c3ccncc3)c2c1)[C@@H]1CCN(CC(=O)N2CCN(c3ccc(-c4ncccn4)cc3)CC2)C1 [SCH772984, reference compound]" target_under_test="ERK1 (Homo sapiens, UniProt P27361)" reported_value=2.42e-09

---

assay: viability of confluent cells; format: cell-based, human; conditions: human, HaCat cells at 90–100% confluence, 120 h, replicates (Fig 1c source data), read-out: viability, odu as a percentage of the DMSO control
measured-attribute: viability at 120 h, 10 µM (%)

structure_notation=CO[C@@H]1[C@H](N(C)C(=O)CCC(=O)NCc2cn(CCCS(=O)(=O)O)nn2)C[C@H]2O[C@]1(C)n1c3ccccc3c3c4c(c5c6ccccc6n2c5c31)C(=O)NC4 unit_info=% reported_value=98

---

target: AMPK (A1/B2/G3) (Homo sapiens, UniProt Q13131); construct: purchased Reaction Biology Corporation; experiment: HotSpot kinase assay; assay type: biochemical; conditions: read-out: IC50 (M) of Control Compound
measured-attribute: IC50 (M)

compound="Cn1cc(C2=C(c3cn(CCCSC(=N)N)c4ccccc34)C(=O)NC2=O)c2ccccc21 [Ro-31-8220, reference compound]" reported_value=1.15e-07

---

target: ZAK/MLTK (Homo sapiens, UniProt Q9NYL2); construct: purchased Reaction Biology Corporation; assay: HotSpot kinase assay; assay type: biochemical; conditions: read-out: IC50 (M) of Control Compound
measured-attribute: IC50 (M)

compound="O=C1Nc2ccc(I)cc2/C1=C/c1cc(Br)c(O)c(Br)c1 [GW5074, reference compound]" reported_value=1.89e-06

---

Target: PDK4/PDHK4 (Homo sapiens, UniProt Q16654)
Construct: purchased Reaction Biology Corporation
Sequence (Q16654 whole entry): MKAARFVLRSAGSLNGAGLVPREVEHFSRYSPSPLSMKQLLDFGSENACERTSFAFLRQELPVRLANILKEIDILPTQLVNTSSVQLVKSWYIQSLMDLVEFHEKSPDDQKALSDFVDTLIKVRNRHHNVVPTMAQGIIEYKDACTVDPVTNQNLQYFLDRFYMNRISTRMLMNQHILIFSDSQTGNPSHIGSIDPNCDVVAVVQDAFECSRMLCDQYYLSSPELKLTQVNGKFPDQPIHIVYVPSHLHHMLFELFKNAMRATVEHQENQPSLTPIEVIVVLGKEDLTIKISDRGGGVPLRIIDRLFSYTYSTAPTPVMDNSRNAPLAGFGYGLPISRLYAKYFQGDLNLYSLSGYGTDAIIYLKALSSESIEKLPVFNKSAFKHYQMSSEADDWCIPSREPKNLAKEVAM
Test: HotSpot kinase assay
Assay type: biochemical
Settings: read-out: IC50 (M) of Control Compound
Procedure: Kinase activity were performed by Reaction Biology Corporation using the “HotSpot” assay platform modified from the published procedure.
measured-attribute: IC50 (M)

compound="O=C1Nc2ccc(I)cc2/C1=C/c1cc(Br)c(O)c(Br)c1 [GW5074, reference compound]" reported_value=1.89e-06

---

target: VRK2 (Homo sapiens, UniProt Q86Y07); construct: purchased Reaction Biology Corporation; assay: HotSpot kinase assay; assay type: biochemical; conditions: read-out: IC50 (M) of Control Compound
measured-attribute: IC50

compound="Cn1cc(C2=C(c3cn(CCCSC(=N)N)c4ccccc34)C(=O)NC2=O)c2ccccc21 [Ro-31-8220, reference compound]" reported_value="1.7e-05 M"
